# System: 786-0 renal
# assay_text: NCI tumour cell line growth inhibition, 48 h
Attribute: TGI

// known answers, use as guide
NC(=O)c1ccc2c(c1)-c1nc-2nc2[n-]c(nc3nc(nc4[n-]c(n1)c1ccc(C(N)=O)cc41)-c1ccc(C(N)=O)cc1-3)c1ccc(C(N)=O)cc21.[Co+2] ... > 50 µM
CO[C@H]1C[C@@H]2CC[C@@H](C)[C@@](O)(O2)C(=O)C(=O)N2CCCC[C@H]2C(=O)O[C@H]([C@H](C)C[C@@H]2CC[C@@H](OC(=O)C(C)(CO)CO)[C@H](OC)C2)CC(=O)[C@H](C)/C=C(\C)[C@@H](O)[C@@H](OC)C(=O)[C@H](C)C[C@H](C)\C=C/C=C/C=C/1C ... > 10 µM
CCCCCCCC/C=C1\CCC(CN(C)C)C1=O (stereo not given) ... 2.88 µM
O=C1OC(c2ccccc2)=NC1c1ccccc1 (stereo not given) ... > 100 µM

Turning now to a further compound:
Summary for this compound, O=C1NC2NC3NC(=O)NC3NC2N1 (stereo not given) : TGI is > 100 µM

Reference for the values: PubChem BioAssay (NCI)
